Test system: blood glucose
Test: Anti-hyperglycaemic activity (blood glucose after subcutaneous glucose in fasted mice)
Type: in vivo, Female CFLP mice
Settings: Mus musculus, po, 2 h, read-out: Reduction in area under blood glucose curve
Protocol: Female CFLP mice, each weighing approximately 25 g were fasted for 24 hours prior to the study. The compounds under study were administered orally as an aqueous solution to each of 6 mice. 6 mice were given water as a control. 30 minutes later a blood sample (20 μl ) was obtained from the tail for the analysis of blood glucose. Immediately after taking this blood sample, glucose (1 g/kg body weight) was administered subcutaneously to each mouse. […]
Counter-ions that a name gives are not always drawn.
PROPERTY MEASURED: inhibition in vivo at 2.5 µmol/kg (%)
The response must be a number in % with no trailing unit.

Reference set (4 entries):
compound="COc1ccc(C[C@H](C)NC[C@H](O)c2cccc(Cl)c2)cc1OC (relative stereo)" system="blood glucose" property_measured="inhibition in vivo at 2.5 µmol/kg" assay_value=34
compound="COc1ccc(CC(C)NCC(O)c2cccc(Cl)c2)cc1C (stereo not drawn)" system="blood glucose" property_measured="inhibition in vivo at 2.5 µmol/kg" assay_value=58
compound="COc1ccc(C[C@@H](C)NCC(O)c2cccc(Cl)c2)cc1F (stereo partly drawn) [Example 17, hydrobromide]" system="blood glucose" property_measured="inhibition in vivo at 2.5 µmol/kg" assay_value=38
compound="COc1cccc(CC(C)NCC(O)c2cccc(Cl)c2)c1 (stereo not drawn) [Example 23, hydrochloride]" system="blood glucose" property_measured="inhibition in vivo at 2.5 µmol/kg" assay_value=22

Exercise: If you can, please state the reported inhibition in vivo at 2.5 µmol/kg value of CC(Cc1ccc(OC2CCCCC2)cc1)NCC(O)c1cccc(Cl)c1 (stereo not drawn) [Example 21, hydrochloride] .
Solution: 53

Exercise: Same question for COc1ccc(CC(C)NCC(O)c2cccc(Cl)c2)cc1OC (stereo not drawn) please.
Solution: 21

* * *

system: blood glucose; test: Anti-hyperglycaemic activity (blood glucose after subcutaneous glucose in fasted mice); assay type: in vivo, Female CFLP mice; conditions: Mus musculus; dose 1 μ moles/kg po; 2 hour period after glucose 1 g/kg s.c.; read-out: Reduction in area under blood glucose curve
This section presents compounds with their documented inhibition in vivo at 1 µmol/kg values.
The response must be a number in % with no trailing unit.

Exercise: Request - read-out inhibition in vivo at 1 µmol/kg | tested on blood glucose | compound CC(CCc1ccc(O)cc1)NCC(O)c1cccc(Cl)c1 (stereo not shown)
Solution: 47

Exercise: Same question for CC(Cc1ccc(OCc2ccccc2)cc1)NCC(O)c1cccc(Cl)c1 (stereo not shown) please.
Solution: 36

Exercise: Same question for COc1ccc(CCNCC(O)c2cccc(Cl)c2)cc1 (stereo not shown) please.
Solution: 39

Exercise: Same question for CCCCCCCCCCOc1ccc(CC(C)NCC(O)c2cccc(Cl)c2)cc1 (stereo not shown) please.
Solution: 22

Data provenance is patent US4622342A.
